Experiment: qHTS assay to identify small molecule agonists of the RXR signaling pathway - cell viability counter screen (AID 1159529); also: nearly all actives have a fitted effect of over 50% in size
Conditions: RXR-alpha-bla HEK293T viability, CellTiter-Glo, 16 h; series mostly up to 76.8 µM
Inconclusive results are not listed. Calls of active or inactive are those of the source. Calls follow the shape of the dose curve; as a rule, active = well fitted cell-killing curve with a large enough effect in the repeat runs; inconclusive = weak or mixed curves, or effect the other way; inactive = no such curve, though single readings can be large or run the other way.
Please answer using one outcome listed in yes for active, no for inactive

# example entries with known answers
stdin: Could you please tell me the result logged for CCCCCCCCCCCCCCCCC(C(=O)O)C(O)(CC(=O)O)C(=O)O (centres undefined) in this assay?
stdout: yes

stdin: Check CCCC(C)C=O (centres undefined) too.
stdout: no

More entries:
stdin: Could you please tell me the result logged for CCOC(=O)[C@H](O)[C@@H](O)C(=O)OCC in this assay?
stdout: no

stdin: Check COc1cc(OC)nc(NC(=O)NS(=O)(=O)Nc2ccccc2C(=O)N(C)C)n1 too.
stdout: no

====

Molecular target: Aromatase (Homo sapiens)
Test: qHTS assay to identify aromatase inhibitors (AID 743083); also: nearly all actives have a fitted effect of over 55% in size
Conditions: MCF-7 aro ERE, testosterone-driven ERE luciferase, 24 h; series mostly up to 70.3 µM
Results filed as inconclusive are left out. Calls of active or inactive are those of the source. Calls come from the whole dose curve; as a rule, active = well fitted inhibition curve with a large enough effect in the repeat runs; inconclusive = weak or mixed curves; inactive = no such curve, though single readings can be large or run the other way.
Please answer using one outcome listed in active, inactive

stdin: Could you please tell me the result logged for Cc1onc(-c2c(F)cccc2Cl)c1C(=O)N[C@@H]1C(=O)N2[C@@H]1SC(C)(C)[C@@H]2C(=O)O in this assay?
stdout: inactive

stdin: Check CC(C)=CCC/C(C)=C/CC/C(C)=C/CC/C(C)=C/CC1=C(C)C(=O)c2ccccc2C1=O too.
stdout: inactive

stdin: Check CC(=O)Oc1cc(C(F)(F)F)ccc1C(=O)O too.
stdout: inactive

stdin: Check NC(=O)[C@@H]1C[C@]2(NC(=O)NC2=O)c2cc(F)ccc2O1 too.
stdout: inactive

stdin: Check O=C(O)Cc1nn(Cc2ccc(Br)cc2F)c(=O)c2ccccc12 too.
stdout: inactive

stdin: Check CCCCCCCCOC(=O)c1cc(O)c(O)c(O)c1 too.
stdout: active

stdin: Check CCCCCCCCCC[N+](C)(CCCCCCCCCC)CCC[Si](OC)(OC)OC too.
stdout: active

stdin: Check CC12CCC(C[N+](C)(CCC[N+](C)(C)C)C1)C2(C)C (configuration not stated) too.
stdout: inactive

stdin: Check CC(C)CCC[C@@H](C)[C@H]1CC[C@H]2[C@@H]3CC=C4C[C@@H](O)CC[C@]4(C)[C@H]3CC[C@]12C too.
stdout: inactive

stdin: Check C=CC[N@@+]12CC[C@@]34c5ccccc5N5/C=C6/[C@H]7C[C@H]8[C@@]9(CC[N@@+]8(CC=C)C/C7=C/CO)c7ccccc7N(/C=C(/[C@@H](C[C@@H]31)/C(=C\CO)C2)[C@H]54)[C@@H]69 too.
stdout: inactive

stdin: Check CO/N=C(\C(=O)N[C@@H]1C(=O)N2C(C(=O)O)=C(C[N+]3(C)CCCC3)CS[C@H]12)c1csc(N)n1 too.
stdout: inactive

stdin: Check C[C@H]1O[C@@H](O[C@H]2CC[C@@]3(C)[C@H](CC[C@@H]4[C@@H]3C[C@@H](O)[C@]3(C)[C@@H](C5=CC(=O)OC5)CC[C@]43O)C2)C[C@H](O)[C@@H]1O[C@H]1C[C@H](O)[C@H](O[C@H]2C[C@H](O)[C@H](O[C@@H]3O[C@H](CO)[C@@H](O)[C@H](O)[C@H]3O)[C@@H](C)O2)[C@@H](C)O1 too.
stdout: inactive
